# maps each entry to its glycan array binding signal (z-score)
biological target: Neu5Ac9Ac(a2-3)Gal(b1-4)GlcNAc; assay: glycan array binding signal (z-score within array); higher = stronger binding; details: glycan notation: IUPAC condensed, linker removed
Many of the other results were omitted from the sample, so the strongest signals are more common in it than they were.
When you answer, write just the number.

Worked cases, glycan array binding signal (z-score) given:
binder: CFEM-CGl (Candida glabrata), Q6FRS0 (protein) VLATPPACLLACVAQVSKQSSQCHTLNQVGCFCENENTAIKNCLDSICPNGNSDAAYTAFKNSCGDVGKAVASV
glycan array binding signal (z-score): -0.485
--
binder: Epa2 (Candida glabrata) (protein) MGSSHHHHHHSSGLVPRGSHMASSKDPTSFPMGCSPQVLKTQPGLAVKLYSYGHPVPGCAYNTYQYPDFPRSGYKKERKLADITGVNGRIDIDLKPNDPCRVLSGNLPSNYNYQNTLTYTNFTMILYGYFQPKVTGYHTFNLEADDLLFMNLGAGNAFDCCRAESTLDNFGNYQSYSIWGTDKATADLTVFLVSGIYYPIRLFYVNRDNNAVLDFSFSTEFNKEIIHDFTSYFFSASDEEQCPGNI
glycan array binding signal (z-score): -0.074

Reported glycan array binding signal (z-score) for SSR1 (Sclerotium rolfsii), A0A0M3KL30 (protein) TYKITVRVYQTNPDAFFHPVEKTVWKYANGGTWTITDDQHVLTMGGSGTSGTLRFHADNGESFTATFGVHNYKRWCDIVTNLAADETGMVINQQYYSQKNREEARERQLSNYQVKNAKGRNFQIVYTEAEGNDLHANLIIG was -0.27
